# METHOD: Stability in human plasma (LC-MS, residual peptide)
# Format: in vitro ADME
# CONDITION_DESCRIPTION: 37 °C, 60 minutes, read-out: percentage of residual peptide relative to the peptide amount before reaction
VALUE_KIND: remaining at 1 h, 5 µM (%)
One number for each entry, in %.

Q: Using the record for Ac-EARPALLTSRLRFIPK-NH2 [GV2002] , state its measured remaining at 1 h, 5 µM.
Result: 57.2

Data origin: patent EP4729530A1
